Biological target: HIV-1 Env of pseudovirus CNE52 (HIV-1)
Assay: cell-based or functional assay
ENDPOINT LABEL: neutralization IC50 (µg/mL)
Give just the number in µg/mL; leave the unit off.

Kindly note the recorded neutralization IC50 for MS-84 (antibody, V domains shown) VH: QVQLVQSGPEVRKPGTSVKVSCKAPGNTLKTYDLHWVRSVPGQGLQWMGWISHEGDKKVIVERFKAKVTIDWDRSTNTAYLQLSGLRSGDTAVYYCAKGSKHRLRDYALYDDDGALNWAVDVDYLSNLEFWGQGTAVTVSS VL: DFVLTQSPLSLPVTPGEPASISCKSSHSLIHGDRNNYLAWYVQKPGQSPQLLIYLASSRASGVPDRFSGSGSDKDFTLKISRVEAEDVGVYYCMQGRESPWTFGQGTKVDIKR , which is 0.092

Kindly note the recorded neutralization IC50 for MS-83 (antibody, V domains shown) VH: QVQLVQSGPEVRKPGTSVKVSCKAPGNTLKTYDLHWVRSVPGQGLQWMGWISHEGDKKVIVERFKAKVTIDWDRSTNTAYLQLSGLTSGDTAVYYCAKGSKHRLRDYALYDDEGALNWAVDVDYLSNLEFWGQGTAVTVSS VL: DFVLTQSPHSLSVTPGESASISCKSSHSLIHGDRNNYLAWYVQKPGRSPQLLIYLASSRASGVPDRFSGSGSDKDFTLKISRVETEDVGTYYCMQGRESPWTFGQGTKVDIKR , which is 0.135

Kindly note the recorded neutralization IC50 for MS-78 (antibody, V domains shown) VH: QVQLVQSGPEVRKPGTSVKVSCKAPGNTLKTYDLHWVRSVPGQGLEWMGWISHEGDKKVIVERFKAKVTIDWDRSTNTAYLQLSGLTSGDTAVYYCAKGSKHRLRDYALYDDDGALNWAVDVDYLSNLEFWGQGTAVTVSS VL: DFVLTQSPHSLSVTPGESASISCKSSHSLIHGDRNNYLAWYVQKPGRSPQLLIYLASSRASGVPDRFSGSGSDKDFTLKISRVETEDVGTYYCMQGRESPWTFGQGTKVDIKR , which is 0.233

Kindly note the recorded neutralization IC50 for MS-75 (antibody, V domains shown) VH: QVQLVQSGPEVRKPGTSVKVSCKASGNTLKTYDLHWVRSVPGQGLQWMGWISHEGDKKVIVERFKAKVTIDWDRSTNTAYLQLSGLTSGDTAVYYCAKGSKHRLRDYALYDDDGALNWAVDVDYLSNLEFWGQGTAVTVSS VL: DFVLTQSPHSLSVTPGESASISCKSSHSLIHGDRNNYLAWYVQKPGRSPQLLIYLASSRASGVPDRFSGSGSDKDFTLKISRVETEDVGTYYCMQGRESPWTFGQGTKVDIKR , which is 0.687

Kindly note the recorded neutralization IC50 for MS-85 (antibody, V domains shown) VH: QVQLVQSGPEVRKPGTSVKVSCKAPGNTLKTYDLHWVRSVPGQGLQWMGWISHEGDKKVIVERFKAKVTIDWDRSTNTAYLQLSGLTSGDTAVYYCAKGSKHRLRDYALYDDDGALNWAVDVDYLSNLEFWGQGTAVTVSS VL: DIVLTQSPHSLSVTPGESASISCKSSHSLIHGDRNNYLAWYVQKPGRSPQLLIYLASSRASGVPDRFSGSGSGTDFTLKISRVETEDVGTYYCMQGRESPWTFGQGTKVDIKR , which is 0.341

Kindly note the recorded neutralization IC50 for MS-74 (antibody, V domains shown) VH: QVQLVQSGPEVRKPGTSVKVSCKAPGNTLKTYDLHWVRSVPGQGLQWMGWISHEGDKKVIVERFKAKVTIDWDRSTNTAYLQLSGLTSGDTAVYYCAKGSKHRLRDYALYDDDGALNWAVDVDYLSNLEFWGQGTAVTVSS VL: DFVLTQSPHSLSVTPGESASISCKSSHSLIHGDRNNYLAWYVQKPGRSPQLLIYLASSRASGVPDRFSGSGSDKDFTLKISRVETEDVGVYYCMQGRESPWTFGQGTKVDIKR , which is 0.169

Kindly note the recorded neutralization IC50 for MS-76 (antibody, V domains shown) VH: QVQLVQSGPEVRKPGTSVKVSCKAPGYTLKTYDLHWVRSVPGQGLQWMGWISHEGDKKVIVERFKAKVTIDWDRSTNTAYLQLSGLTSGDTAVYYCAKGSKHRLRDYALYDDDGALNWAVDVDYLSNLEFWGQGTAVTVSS VL: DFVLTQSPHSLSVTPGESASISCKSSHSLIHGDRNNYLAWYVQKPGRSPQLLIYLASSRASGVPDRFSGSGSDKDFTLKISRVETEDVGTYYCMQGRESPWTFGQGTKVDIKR , which is 0.174

Kindly note the recorded neutralization IC50 for MS-89 (antibody, V domains shown) VH: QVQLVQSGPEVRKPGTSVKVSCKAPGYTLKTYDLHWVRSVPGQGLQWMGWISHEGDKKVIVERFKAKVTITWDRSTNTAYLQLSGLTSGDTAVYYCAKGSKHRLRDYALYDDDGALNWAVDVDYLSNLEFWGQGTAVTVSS VL: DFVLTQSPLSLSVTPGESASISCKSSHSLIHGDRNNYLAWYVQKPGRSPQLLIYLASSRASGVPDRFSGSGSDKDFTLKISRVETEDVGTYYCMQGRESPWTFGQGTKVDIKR , which is 2.34

Kindly note the recorded neutralization IC50 for MS-70 (antibody, V domains shown) VH: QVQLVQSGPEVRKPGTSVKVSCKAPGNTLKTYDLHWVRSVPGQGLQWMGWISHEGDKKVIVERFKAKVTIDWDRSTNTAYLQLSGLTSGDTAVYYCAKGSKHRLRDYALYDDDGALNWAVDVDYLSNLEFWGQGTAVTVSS VL: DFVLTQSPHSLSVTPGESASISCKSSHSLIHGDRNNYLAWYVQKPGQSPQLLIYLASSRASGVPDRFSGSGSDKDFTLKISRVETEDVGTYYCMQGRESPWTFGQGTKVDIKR , which is 0.301
